# experimental.target: Torsin-1A-interacting protein 2 (Homo sapiens) (UniProt Q8NFQ8)
# Sequence (Q8NFQ8 whole entry, looked up): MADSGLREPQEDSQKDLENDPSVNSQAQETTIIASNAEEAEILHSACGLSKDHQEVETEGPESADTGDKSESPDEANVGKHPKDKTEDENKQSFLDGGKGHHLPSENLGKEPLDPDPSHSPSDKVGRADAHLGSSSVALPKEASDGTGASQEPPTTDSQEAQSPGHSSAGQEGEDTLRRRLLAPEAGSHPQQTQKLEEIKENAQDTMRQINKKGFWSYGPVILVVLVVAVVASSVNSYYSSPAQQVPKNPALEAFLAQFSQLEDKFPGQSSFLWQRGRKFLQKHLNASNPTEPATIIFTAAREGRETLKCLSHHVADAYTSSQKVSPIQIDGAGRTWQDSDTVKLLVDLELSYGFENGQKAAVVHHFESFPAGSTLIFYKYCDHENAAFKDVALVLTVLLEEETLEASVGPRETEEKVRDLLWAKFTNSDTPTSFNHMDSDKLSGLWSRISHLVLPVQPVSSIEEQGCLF
# experiment.summary: LULL1 binders on small-molecule microarray, primary screen, cell lysate, human LULL1 lysate, 635/667 nm fluorescence (AID 1092);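 further: probe is lysate of COS7 cells overexpressing human LULL1; score merges per-feature 667 nm fluorescence with signal-to-noise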
# run.parameters: hLULL1 lysate binding, 635 nm fluorescence, higher = more signal

# molecule, composite z-score
measured = [
    ("O=C1NC(=O)C2C1C=CC(C(O)c1ccc(F)cc1)N2Nc1ccc(Cl)cc1Cl (stereo not drawn)", 3.02),
    ("CCOC(=O)C1=CCC(c2cccn2C(=O)OC(C)(C)C)N(S(=O)(=O)c2ccc(C)cc2)C1 (stereo not drawn)", 3.36),
    ("CCOC(=O)C[C@H]1[C@H](OC(=O)c2ccc(-c3ccccc3)cc2)[C@@H](NC(=O)c2ccc(-c3ccccc3)cc2)c2cc(OCCCO)ccc2N1C(=O)c1ccccc1", 1.69),
    ("COCCOC(=O)N1C(=O)[C@@]2(c3cc(C#CCNC(N)=O)ccc31)[C@H](c1ccc(O)cc1)N1[C@H](c3ccccc3)[C@H](c3ccccc3)OC(=O)[C@H]1[C@@H]2C(=O)N1CCc2cc(OC)c(OC)cc2C1", 1.47),
    ("O=C(c1ccccc1)N1Cc2ccccc2C[C@@]2(N=C(c3ccc(OCCCO)cc3)O[C@H]2c2ccccc2)C1=O", 2.81),
    ("CC[C@@H](O[Si](C#C[Si](C(C)C)(C(C)C)C(C)C)(C(C)C)C(C)C)c1cn([C@H](CO)Cc2ccccc2)nn1", 1.51),
    ("CCCCCN1CC=CC23O[C@@H]4/C=C\\CCCOC(=O)C4[C@H]2C(=O)N(CCCCCO)[C@@H]3C1=O (stereo partly drawn)", -2.15),
    ("COC(=O)[C@@]1(Cc2ccc(F)cc2)[C@H]2c3cc(C(=O)N4CCCC4)n(Cc4ccc(OC(F)(F)F)cc4)c3C[C@H]2CN1C(=O)c1ccccc1", 2.1),
]

====

# experiment.summary: binders of probe aFSTL3 on microarray, primary screen, stem cell growth factor project, biochemical, small-molecule microarray, fluorescence 635/667 (AID 1064);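 further: measures binding of the biotinylated anti-FSTL3 antibody to printed compounds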
# run.parameters: higher = more signal
In this section we review reported composite z-score values for a set of compounds.
readout.type: composite z-score

# smiles.data, test.result
measured = [
    ("C=CC[C@@]1(C(=O)NCCCOC)N=C(c2ccc(OCCCO)cc2)O[C@@H]1c1ccccc1CN=[N+]=[N-]", 0.227),
    ("COC(=O)[C@]1(Cc2ccccc2N=[N+]=[N-])N=C(c2ccc(OCCCO)cc2)O[C@@H]1c1ccccc1CN=[N+]=[N-]", 0.736),
    ("C=C(CCCC)/C(=C/C[C@@H](OC(C)=O)c1ccc(OCCO)cc1)c1cc(C(=O)OC)ccc1OC", 0.0062),
    ("COc1ccc([Si](C)(C)[C@H]2[C@H](CC(=O)N3CCC[C@H]3CO)O[C@@]3(C(=O)N(C)c4ccccc43)[C@@H]2C)cc1", 0.735),
]

====

# experimental.target: Concanavalin-A (Canavalia ensiformis) (UniProt P02866)
# Sequence (P02866 whole entry, looked up): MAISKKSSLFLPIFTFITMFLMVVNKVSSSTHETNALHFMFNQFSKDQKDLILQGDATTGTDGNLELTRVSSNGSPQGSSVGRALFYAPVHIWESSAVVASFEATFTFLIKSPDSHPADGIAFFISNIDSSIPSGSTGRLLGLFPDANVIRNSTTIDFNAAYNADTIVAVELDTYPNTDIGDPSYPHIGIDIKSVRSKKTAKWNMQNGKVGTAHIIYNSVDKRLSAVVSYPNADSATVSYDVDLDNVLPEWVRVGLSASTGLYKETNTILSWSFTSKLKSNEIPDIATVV
# experiment.summary: ConA small-molecule binders, primary screen, artefact control for SMM control protein annotation, biochemical, small-molecule microarray, Alexa647 label, 635 nm (AID 1127);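 further: z combines 667 nm emission intensity with signal-to-noise across three replicate slides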
# run.parameters: ConA-A647 binding fluorescence, higher = more signal
In this section we review reported composite z-score values for a set of molecules.
readout.type: composite z-score

# molecule, experimental.target, test.result
data = [
    ("COCCOC(=O)N1C(=O)[C@@]2(c3ccccc31)[C@H](C(=O)Nc1nc3ccccc3s1)[C@H]1C(=O)O[C@H](c3ccccc3)[C@H](c3ccccc3)N1[C@@H]2c1ccccc1OCCO", "Concanavalin-A (Canavalia ensiformis) (UniProt P02866)", 1.08),
    ("COC(=O)C(CC#Cc1ccc2c(c1)[C@]1(C(=O)N2)[C@H](c2ccc(OCCO)cc2)N2[C@H](c3ccccc3)[C@H](c3ccccc3)OC(=O)[C@H]2[C@@H]1C(N)=O)C(=O)OC", "Concanavalin-A (Canavalia ensiformis) (UniProt P02866)", 1.14),
    ("[N-]=[N+]=NCc1ccccc1[C@H]1OC(c2ccc(OCCCO)cc2)=N[C@@]1(CCS(=O)(=O)c1ccccc1)C(=O)O", "Concanavalin-A (Canavalia ensiformis) (UniProt P02866)", 0.399),
    ("C=CCNC(=O)[C@H]1[C@@H]2C(=O)O[C@@H](c3ccccc3)[C@@H](c3ccccc3)N2[C@@H](c2ccc(OCCO)cc2)[C@]12C(=O)N(C(=O)OCCOC)c1ccc(C#CCNC(N)=O)cc12", "Concanavalin-A (Canavalia ensiformis) (UniProt P02866)", 1.11),
    ("C=C(C)C1CN([C@H](CO)c2ccccc2)C(=O)/C1=C\\c1ccccc1 (stereo not given in full)", "Concanavalin-A (Canavalia ensiformis) (UniProt P02866)", 0.0006),
]
